The measurements presented in this section are drawn from the supplement of paper PMC10126150.

# Test system: ATP;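 further: ATP exposure 15 min at 22 °C before imaging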
# procedure_summary: switch fluorescence ratio, 500 uM ATP over buffer (Cy3 cluster intensity, sum of 5 cycles each) (fold (ratio)); higher = stronger signal-on switching upon ATP binding; sequences stand for … in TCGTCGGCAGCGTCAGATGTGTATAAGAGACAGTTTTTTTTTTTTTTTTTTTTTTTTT…TC
# assay_context: aptamer strand: ATP DNA aptamer (quencher-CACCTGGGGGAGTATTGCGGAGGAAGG + anchor), 100 nM annealed; ATP concentration: 500 uM
Exercise: state measured switch fluorescence ratio for each of the sequences provided.
Kindly provide the number alone.

Requested field: switch fluorescence ratio. Item: `CCTTGGCCGA` 1.17

Requested field: switch fluorescence ratio. Item: `CAGGAGGCGG` 1.02

Requested field: switch fluorescence ratio. Item: `CGTGCGGTGG` 1.01

Requested field: switch fluorescence ratio. Item: `AATGTACTTT` 1.03

Requested field: switch fluorescence ratio. Item: `ACTATTATTT` 0.989

Requested field: switch fluorescence ratio. Item: `TGAGTTGAAG` 0.987

Requested field: switch fluorescence ratio. Item: `TTTGGGGTGC` 1.09

Requested field: switch fluorescence ratio. Item: `TATCTAAATC` 0.997

Requested field: switch fluorescence ratio. Item: `GCTACTTTGG` 1.06

Requested field: switch fluorescence ratio. Item: `CAAAGTAGGC` 0.958

Requested field: switch fluorescence ratio. Item: `AAAACTGCGA` 1.03

Requested field: switch fluorescence ratio. Item: `GGGTTCCTAT` 0.987

Requested field: switch fluorescence ratio. Item: `TCTTACGAAG` 1.27

Requested field: switch fluorescence ratio. Item: `TCAAACGTAG` 0.979

Requested field: switch fluorescence ratio. Item: `TCGGAGCTTA` 2.98

Requested field: switch fluorescence ratio. Item: `GATTAGGCAT` 0.996

Requested field: switch fluorescence ratio. Item: `GAGATGGCAT` 0.987

Requested field: switch fluorescence ratio. Item: `GGGGAGGGCA` 1.02

Requested field: switch fluorescence ratio. Item: `CTGTGTTTGG` 0.997

Requested field: switch fluorescence ratio. Item: `AAAGGCGTCA` 1.01
